Test system: 156681-154-R-J1-PDC complex spheroid viability
method notes: Anticancer human tumor 156681-154-R-J1-PDC patient-derived melanoma cell line growth inhibition [CLK]
measurement setup: second compound 0.316 µM; first compound 10 µM; active compounds read low
value kind: viability, T/C (%)
State just the number; it will be interpreted in %.

Per the records, this molecule ( O=C(c1cc(Cc2n[nH]c(=O)c3ccccc23)ccc1F)N1CCN(C(=O)C2CC2)CC1 + CNC(=O)c1ccc(Nc2nc(OC3CCCC3)c3c(-c4ccc5nc(C)oc5c4)c[nH]c3n2)c(OC)c1 ) has viability, T/C equal to 54.3

Per the records, this molecule ( CC(=O)O[C@H]1C(=O)[C@@]2(C)[C@H]([C@H](OC(=O)c3ccccc3)[C@]3(O)C[C@H](OC(=O)[C@H](O)[C@@H](NC(=O)c4ccccc4)c4ccccc4)C(C)=C1C3(C)C)[C@]1(OC(C)=O)CO[C@@H]1C[C@@H]2O + CNC(=O)c1ccc(Nc2nc(OC3CCCC3)c3c(-c4ccc5nc(C)oc5c4)c[nH]c3n2)c(OC)c1 ) has viability, T/C equal to 95.3

Per the records, this molecule ( CCCS(=O)(=O)Nc1ccc(F)c(C(=O)c2c[nH]c3ncc(-c4ccc(Cl)cc4)cc23)c1F + CN1CCN(c2cc(C(=O)Nc3cc4cc(-c5cnn(C)c5)ccc4cn3)ccn2)CC1 ) has viability, T/C equal to 3.74

Per the records, this molecule ( CC(Nc1ccc2c(c1)OCCn1cc(N3C(=O)OCC3C(F)F)nc1-2)C(N)=O (stereo not given) + CN1CCN(c2cc(C(=O)Nc3cc4cc(-c5cnn(C)c5)ccc4cn3)ccn2)CC1 ) has viability, T/C equal to 4.8

Per the records, this molecule ( COc1cccc2c1C(=O)c1c(O)c3c(c(O)c1C2=O)CC(O)(C(=O)CO)CC3OC1CC(N)C(O)C(C)O1 (stereo not given) + CNC(=O)c1ccc(Nc2nc(OC3CCCC3)c3c(-c4ccc5nc(C)oc5c4)c[nH]c3n2)c(OC)c1 ) has viability, T/C equal to 0.32

Per the records, this molecule ( COc1ccc([C@@H](O)c2cc(-c3ncnc4cc(N5CCOCC5)ccc34)c(F)cc2Cl)nn1 + CN1CCN(c2cc(C(=O)Nc3cc4cc(-c5cnn(C)c5)ccc4cn3)ccn2)CC1 ) has viability, T/C equal to 2.77

Per the records, this molecule ( Nc1ccccc1NC(=O)c1ccc(CNC(=O)OCc2cccnc2)cc1 + CNC(=O)c1ccc(Nc2nc(OC3CCCC3)c3c(-c4ccc5nc(C)oc5c4)c[nH]c3n2)c(OC)c1 ) has viability, T/C equal to 8.02

Per the records, this molecule ( C=CC(=O)N1CCN(c2nc(=O)n(-c3c(C)ccnc3C(C)C)c3nc(-c4c(O)cccc4F)c(F)cc23)C(C)C1 (stereo not given) + CN1CCN(c2cc(C(=O)Nc3cc4cc(-c5cnn(C)c5)ccc4cn3)ccn2)CC1 ) has viability, T/C equal to 10.9

Per the records, this molecule ( C#Cc1c(F)ccc2cc(O)cc(-c3ncc4c(N5CC6CCC(C5)N6)nc(OCC56CCCN5CC(F)C6)nc4c3F)c12 (stereo not given) + CNC(=O)c1ccc(Nc2nc(OC3CCCC3)c3c(-c4ccc5nc(C)oc5c4)c[nH]c3n2)c(OC)c1 ) has viability, T/C equal to 65.2

Per the records, this molecule ( COc1ccc([C@@H](O)c2cc(-c3ncnc4cc(N5CCOCC5)ccc34)c(F)cc2Cl)nn1 + CNC(=O)c1ccc(Nc2nc(OC3CCCC3)c3c(-c4ccc5nc(C)oc5c4)c[nH]c3n2)c(OC)c1 ) has viability, T/C equal to 20.7

----------
I'd be grateful if you could share measured viability, T/C for these entries.
Test system: 156681-154-R-J1-PDC complex spheroid viability
method notes: Anticancer human tumor 156681-154-R-J1-PDC cell line growth inhibition [CLK];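 further: spheroids exposed to the agents for seven days; 100% = DMSO vehicle control viability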
measurement setup: second compound 0.316 µM; first compound 10 µM; active compounds read low
State just the number; it will be interpreted in %.

Per the records, this compound ( CC1COCCN1c1cc(C2(S(C)(=N)=O)CC2)nc(-c2ccnc3[nH]ccc23)n1 (centres undefined) + CNC(=O)c1ccc(Nc2nc(OC3CCCC3)c3c(-c4ccc5nc(C)oc5c4)c[nH]c3n2)c(OC)c1 ) has viability, T/C equal to 17.8

Per the records, this compound ( CCCS(=O)(=O)Nc1ccc(F)c(C(=O)c2c[nH]c3ncc(-c4ccc(Cl)cc4)cc23)c1F + CNC(=O)c1ccc(Nc2nc(OC3CCCC3)c3c(-c4ccc5nc(C)oc5c4)c[nH]c3n2)c(OC)c1 ) has viability, T/C equal to 14.4

Per the records, this compound ( C#Cc1c(F)ccc2cc(O)cc(-c3ncc4c(N5CC6CCC(C5)N6)nc(OCC56CCCN5CC(F)C6)nc4c3F)c12 (centres undefined) + CN1CCN(c2cc(C(=O)Nc3cc4cc(-c5cnn(C)c5)ccc4cn3)ccn2)CC1 ) has viability, T/C equal to 20.6

Per the records, this compound ( CC(=O)O[C@H]1C(=O)[C@@]2(C)[C@H]([C@H](OC(=O)c3ccccc3)[C@]3(O)C[C@H](OC(=O)[C@H](O)[C@@H](NC(=O)c4ccccc4)c4ccccc4)C(C)=C1C3(C)C)[C@]1(OC(C)=O)CO[C@@H]1C[C@@H]2O + CN1CCN(c2cc(C(=O)Nc3cc4cc(-c5cnn(C)c5)ccc4cn3)ccn2)CC1 ) has viability, T/C equal to 16.8

----------
Tested on: 156681-154-R-J1-PDC complex spheroid viability
method notes: Anticancer human tumor 156681-154-R-J1-PDC cell line growth inhibition [CLK]; active = viability on the fitted dose curve at most 10% of control; inactive = the rest;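 further: spheroids exposed to the agents for seven days; 100% = DMSO vehicle control viability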
measurement setup: second compound 0.0316 µM; first compound 0.000949 µM
// classify into active, inactive

In: Please state the recorded outcome for this compound: C=CC(=O)Nc1cc(Nc2nccc(-c3cn(C)c4ccccc34)n2)c(OC)cc1N(C)CCN(C)C + CNC(=O)c1ccc(Nc2nc(OC3CCCC3)c3c(-c4ccc5nc(C)oc5c4)c[nH]c3n2)c(OC)c1
Out: inactive

In: Please state the recorded outcome for this compound: CC(C)CC(NC(=O)C(Cc1ccccc1)NC(=O)c1cnccn1)B(O)O (centres undefined) + CNC(=O)c1ccc(Nc2nc(OC3CCCC3)c3c(-c4ccc5nc(C)oc5c4)c[nH]c3n2)c(OC)c1
Out: active

In: Please state the recorded outcome for this compound: CC(C)CC(NC(=O)C(Cc1ccccc1)NC(=O)c1cnccn1)B(O)O (centres undefined) + CN1CCN(c2cc(C(=O)Nc3cc4cc(-c5cnn(C)c5)ccc4cn3)ccn2)CC1
Out: inactive

In: Please state the recorded outcome for this compound: C=CC(=O)Nc1cc(Nc2nccc(-c3cn(C)c4ccccc34)n2)c(OC)cc1N(C)CCN(C)C + CN1CCN(c2cc(C(=O)Nc3cc4cc(-c5cnn(C)c5)ccc4cn3)ccn2)CC1
Out: inactive

----------
I'd be grateful if you could share measured viability, T/C for these entries.
Test system: 156681-154-R-J1-PDC complex spheroid viability
method notes: Anticancer human tumor 156681-154-R-J1-PDC cell line growth inhibition [CLK];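 further: spheroids exposed to the agents for seven days; 100% = DMSO vehicle control viability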
measurement setup: second compound 0.316 µM; first compound 0.01 µM; active compounds read low
State just the number; it will be interpreted in %.

Per the records, this molecule ( CCc1c2c(nc3ccc(O)cc13)-c1cc3c(c(=O)n1C2)COC(=O)[C@]3(O)CC + CN1CCN(c2cc(C(=O)Nc3cc4cc(-c5cnn(C)c5)ccc4cn3)ccn2)CC1 ) has viability, T/C equal to 12.3

Per the records, this molecule ( COc1c(OCCCN2CCOCC2)ccc2c3n(c(=NC(=O)c4cnc(N)nc4)nc12)CCN3 + CN1CCN(c2cc(C(=O)Nc3cc4cc(-c5cnn(C)c5)ccc4cn3)ccn2)CC1 ) has viability, T/C equal to 15

Per the records, this molecule ( CCc1c2c(nc3ccc(O)cc13)-c1cc3c(c(=O)n1C2)COC(=O)[C@]3(O)CC + CNC(=O)c1ccc(Nc2nc(OC3CCCC3)c3c(-c4ccc5nc(C)oc5c4)c[nH]c3n2)c(OC)c1 ) has viability, T/C equal to 14.2

Per the records, this molecule ( CCN1CCN(Cc2ccc(Nc3ncc(F)c(-c4cc(F)c5nc(C)n(C(C)C)c5c4)n3)nc2)CC1 + CNC(=O)c1ccc(Nc2nc(OC3CCCC3)c3c(-c4ccc5nc(C)oc5c4)c[nH]c3n2)c(OC)c1 ) has viability, T/C equal to 62

Per the records, this molecule ( CCN1CCN(Cc2ccc(Nc3ncc(F)c(-c4cc(F)c5nc(C)n(C(C)C)c5c4)n3)nc2)CC1 + CN1CCN(c2cc(C(=O)Nc3cc4cc(-c5cnn(C)c5)ccc4cn3)ccn2)CC1 ) has viability, T/C equal to 21.1

----------
Tested on: 156681-154-R-J1-PDC complex spheroid viability
method notes: Anticancer human tumor 156681-154-R-J1-PDC cell line growth inhibition [CLK]; active = viability on the fitted dose curve at most 10% of control; inactive = the rest;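 further: spheroids exposed to the agents for seven days; 100% = DMSO vehicle control viability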
measurement setup: second compound 1 µM; first compound 0.1 µM
From the text: A high-throughput screen of multi-cell type tumor spheroids was designed to identify active combinations of […] and targeted small molecules. Complex spheroids include a stromal component modeled by human endothelial cells (HUVEC) and fibroblasts modeled by human mesenchymal stem cells (MSCs). […] Compounds. […] If the clinical Cmax for an agent had not been determined, the highest concentration tested was 10 microM. […]
// classify into Yes (active), No (inactive)

In: Please state the recorded outcome for this compound: Nc1ccn(C2OC(CO)C(O)C2(F)F)c(=O)n1 (stereo not given) + CN1CCN(c2cc(C(=O)Nc3cc4cc(-c5cnn(C)c5)ccc4cn3)ccn2)CC1
Out: Yes

In: Please state the recorded outcome for this compound: C=CC(=O)N1CCN(c2nc(=O)n(-c3c(C)ccnc3C(C)C)c3nc(-c4c(O)cccc4F)c(F)cc23)C(C)C1 (stereo not given) + CNC(=O)c1ccc(Nc2nc(OC3CCCC3)c3c(-c4ccc5nc(C)oc5c4)c[nH]c3n2)c(OC)c1
Out: No

In: Please state the recorded outcome for this compound: C=CC(=O)N1CCN(c2nc(=O)n(-c3c(C)ccnc3C(C)C)c3nc(-c4c(O)cccc4F)c(F)cc23)C(C)C1 (stereo not given) + CN1CCN(c2cc(C(=O)Nc3cc4cc(-c5cnn(C)c5)ccc4cn3)ccn2)CC1
Out: Yes

In: Please state the recorded outcome for this compound: CC(=O)O[C@H]1C(=O)[C@@]2(C)[C@H]([C@H](OC(=O)c3ccccc3)[C@]3(O)C[C@H](OC(=O)[C@H](O)[C@@H](NC(=O)c4ccccc4)c4ccccc4)C(C)=C1C3(C)C)[C@]1(OC(C)=O)CO[C@@H]1C[C@@H]2O + CNC(=O)c1ccc(Nc2nc(OC3CCCC3)c3c(-c4ccc5nc(C)oc5c4)c[nH]c3n2)c(OC)c1
Out: No

In: Please state the recorded outcome for this compound: CCCS(=O)(=O)Nc1ccc(F)c(C(=O)c2c[nH]c3ncc(-c4ccc(Cl)cc4)cc23)c1F + CNC(=O)c1ccc(Nc2nc(OC3CCCC3)c3c(-c4ccc5nc(C)oc5c4)c[nH]c3n2)c(OC)c1
Out: No

In: Please state the recorded outcome for this compound: Cn1ncnc1[C@H]1c2n[nH]c(=O)c3cc(F)cc(c23)N[C@@H]1c1ccc(F)cc1 + CNC(=O)c1ccc(Nc2nc(OC3CCCC3)c3c(-c4ccc5nc(C)oc5c4)c[nH]c3n2)c(OC)c1
Out: No

In: Please state the recorded outcome for this compound: C=C(F)C(=O)N1CCN(c2nc(OCC3CCCN3C)nc3c2CCN(c2cccc4cccc(Cl)c24)C3)CC1CC#N (stereo not given) + CN1CCN(c2cc(C(=O)Nc3cc4cc(-c5cnn(C)c5)ccc4cn3)ccn2)CC1
Out: Yes

In: Please state the recorded outcome for this compound: CC1COCCN1c1cc(C2(S(C)(=N)=O)CC2)nc(-c2ccnc3[nH]ccc23)n1 (stereo not given) + CNC(=O)c1ccc(Nc2nc(OC3CCCC3)c3c(-c4ccc5nc(C)oc5c4)c[nH]c3n2)c(OC)c1
Out: No

In: Please state the recorded outcome for this compound: CC1(C)CCC(CN2CCN(c3ccc(C(=O)NS(=O)(=O)c4ccc(NCC5CCOCC5)c([N+](=O)[O-])c4)c(Oc4cnc5[nH]ccc5c4)c3)CC2)=C(c2ccc(Cl)cc2)C1 + CNC(=O)c1ccc(Nc2nc(OC3CCCC3)c3c(-c4ccc5nc(C)oc5c4)c[nH]c3n2)c(OC)c1
Out: No

In: Please state the recorded outcome for this compound: COc1ccc([C@@H](O)c2cc(-c3ncnc4cc(N5CCOCC5)ccc34)c(F)cc2Cl)nn1 + CN1CCN(c2cc(C(=O)Nc3cc4cc(-c5cnn(C)c5)ccc4cn3)ccn2)CC1
Out: Yes
